- procedure-summary: In vitro disulfide cleavage and immolation by incubation with cysteine or glutathione (LC/MS)
- Type: physicochemical
- details: 30 μM cysteine, pH 7.0, 37° C., 4 h
assay-endpoint: Percentage of all products (%)
Provide the reading as a plain figure in %.

# molecule, reading
rows = [
    ("C=C1C[C@H]2C=Nc3cc(OCCCCCOc4cc5c(cc4OC)C(=O)N4CC(=C)C[C@H]4C(O)N5C(=O)OCC4(SSC[C@H](N)C(=O)O)CCC4)c(OC)cc3C(=O)N2C1 (stereo partly drawn) [Compound 12a]", 74.8),
    ("C=C1C[C@H]2C=Nc3cc(OCCCCCOc4cc5c(cc4OC)C(=O)N4CC(=C)C[C@H]4C(O)N5C(=O)OCC4(SSc5ccc([N+](=O)[O-])cn5)CCC4)c(OC)cc3C(=O)N2C1 (stereo partly drawn)", 15.5),
]

Query string: Recorded Percentage of all products for C=C1C[C@H]2C=Nc3cc(OCCCCCOc4cc5c(cc4OC)C(=O)N4CC(=C)C[C@H]4C(O)N5C(=O)OCC4(SSc5ccc([N+](=O)[O-])cn5)CC4)c(OC)cc3C(=O)N2C1 (stereo partly drawn) , please?
Result string: 19.1
